Test system: microorganisms with acquired resistance
method: microbe, parasite or virus in culture
Format: cell-based
test.parameters: peptide + Piperacillin; S. maltophilia 2
observable: FIC

Worked cases, answers included:
{"residue.sequence": "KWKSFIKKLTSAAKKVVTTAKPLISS [MBI 26]", "tested.target": "microorganisms with acquired resistance", "FIC": 0.75}
{"residue.sequence": "ILRWVWWVWRRK [MBI 11F4CN]", "tested.target": "microorganisms with acquired resistance", "FIC": 0.50}
{"residue.sequence": "ILRRVJPWWPWRRR [MBI 11B9CN]", "tested.target": "microorganisms with acquired resistance", "FIC": 0.75}
{"residue.sequence": "ILKKWVWWPWRRK [MBI 11F3CN]", "tested.target": "microorganisms with acquired resistance", "FIC": 0.75}
{"residue.sequence": "ILKKWPWWPWRRK [MBI 11CN]", "tested.target": "microorganisms with acquired resistance", "FIC": 0.75}
{"residue.sequence": "ILKKWPWWPWRR [MBI 11G7CN]", "tested.target": "microorganisms with acquired resistance", "FIC": 0.75}

Write down measured FIC (microorganisms with acquired resistance) for this sequence. ILRWPWWPWRRK [MBI 11B7CN]
1.00
